The reported measurements were obtained from ChEMBL document CHEMBL1140872.

# System: Serine/threonine-protein kinase 10 (Homo sapiens) (UniProt O94804)
# Sequence (O94804 whole entry, looked up): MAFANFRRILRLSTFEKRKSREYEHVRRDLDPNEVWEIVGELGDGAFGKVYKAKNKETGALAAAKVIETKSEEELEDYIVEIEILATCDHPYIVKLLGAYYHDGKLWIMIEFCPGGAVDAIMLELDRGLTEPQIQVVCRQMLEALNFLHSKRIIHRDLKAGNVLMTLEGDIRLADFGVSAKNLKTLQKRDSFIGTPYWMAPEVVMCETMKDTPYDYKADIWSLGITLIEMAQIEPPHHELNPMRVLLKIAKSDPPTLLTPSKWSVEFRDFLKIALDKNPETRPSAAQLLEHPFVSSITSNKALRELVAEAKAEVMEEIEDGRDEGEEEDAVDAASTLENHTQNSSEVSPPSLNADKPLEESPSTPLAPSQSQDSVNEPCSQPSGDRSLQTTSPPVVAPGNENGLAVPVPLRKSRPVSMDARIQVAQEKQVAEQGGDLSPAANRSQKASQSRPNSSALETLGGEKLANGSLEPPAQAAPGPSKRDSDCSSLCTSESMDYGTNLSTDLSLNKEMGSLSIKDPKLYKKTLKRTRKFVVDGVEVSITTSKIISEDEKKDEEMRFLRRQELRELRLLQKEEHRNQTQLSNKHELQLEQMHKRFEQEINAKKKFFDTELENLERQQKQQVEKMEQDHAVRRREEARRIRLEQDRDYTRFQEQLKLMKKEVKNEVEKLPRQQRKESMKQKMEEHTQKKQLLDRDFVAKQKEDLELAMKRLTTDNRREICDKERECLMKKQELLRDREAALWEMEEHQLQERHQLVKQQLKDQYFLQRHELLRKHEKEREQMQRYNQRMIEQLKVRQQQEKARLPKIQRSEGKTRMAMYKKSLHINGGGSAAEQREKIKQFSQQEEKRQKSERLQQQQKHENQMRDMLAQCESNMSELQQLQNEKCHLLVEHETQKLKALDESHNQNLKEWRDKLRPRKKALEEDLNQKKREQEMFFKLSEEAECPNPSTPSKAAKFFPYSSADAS
# Method summary: Binding affinity to human recombinant LOK expressed in Escherichia coli assessed as thermal shift by differential scanning fluorimetry
Reported endpoint: Tm

# input Report Tm, nothing else, for this compound: C[C@H]1CCCC(=O)[C@@H](C)CC/C=C/c2cc(O)cc(O)c2C(=O)O1
# output < 2 °C

# input Report Tm, nothing else, for this compound: COc1cc2c(c(OC)c1)C(=O)O[C@@H](C)CCC[C@@H](O)[C@@H](C)CC/C=C/2
# output < 2 °C

# input Report Tm, nothing else, for this compound: C[C@@H]1C[C@H]2O[C@@H]2/C=C\C=C\C(=O)Cc2c(Cl)c(O)cc(O)c2C(=O)O1
# output < 2 °C

====

# System: Cyclin-G-associated kinase (Homo sapiens) (UniProt O14976)
# Sequence (whole entry): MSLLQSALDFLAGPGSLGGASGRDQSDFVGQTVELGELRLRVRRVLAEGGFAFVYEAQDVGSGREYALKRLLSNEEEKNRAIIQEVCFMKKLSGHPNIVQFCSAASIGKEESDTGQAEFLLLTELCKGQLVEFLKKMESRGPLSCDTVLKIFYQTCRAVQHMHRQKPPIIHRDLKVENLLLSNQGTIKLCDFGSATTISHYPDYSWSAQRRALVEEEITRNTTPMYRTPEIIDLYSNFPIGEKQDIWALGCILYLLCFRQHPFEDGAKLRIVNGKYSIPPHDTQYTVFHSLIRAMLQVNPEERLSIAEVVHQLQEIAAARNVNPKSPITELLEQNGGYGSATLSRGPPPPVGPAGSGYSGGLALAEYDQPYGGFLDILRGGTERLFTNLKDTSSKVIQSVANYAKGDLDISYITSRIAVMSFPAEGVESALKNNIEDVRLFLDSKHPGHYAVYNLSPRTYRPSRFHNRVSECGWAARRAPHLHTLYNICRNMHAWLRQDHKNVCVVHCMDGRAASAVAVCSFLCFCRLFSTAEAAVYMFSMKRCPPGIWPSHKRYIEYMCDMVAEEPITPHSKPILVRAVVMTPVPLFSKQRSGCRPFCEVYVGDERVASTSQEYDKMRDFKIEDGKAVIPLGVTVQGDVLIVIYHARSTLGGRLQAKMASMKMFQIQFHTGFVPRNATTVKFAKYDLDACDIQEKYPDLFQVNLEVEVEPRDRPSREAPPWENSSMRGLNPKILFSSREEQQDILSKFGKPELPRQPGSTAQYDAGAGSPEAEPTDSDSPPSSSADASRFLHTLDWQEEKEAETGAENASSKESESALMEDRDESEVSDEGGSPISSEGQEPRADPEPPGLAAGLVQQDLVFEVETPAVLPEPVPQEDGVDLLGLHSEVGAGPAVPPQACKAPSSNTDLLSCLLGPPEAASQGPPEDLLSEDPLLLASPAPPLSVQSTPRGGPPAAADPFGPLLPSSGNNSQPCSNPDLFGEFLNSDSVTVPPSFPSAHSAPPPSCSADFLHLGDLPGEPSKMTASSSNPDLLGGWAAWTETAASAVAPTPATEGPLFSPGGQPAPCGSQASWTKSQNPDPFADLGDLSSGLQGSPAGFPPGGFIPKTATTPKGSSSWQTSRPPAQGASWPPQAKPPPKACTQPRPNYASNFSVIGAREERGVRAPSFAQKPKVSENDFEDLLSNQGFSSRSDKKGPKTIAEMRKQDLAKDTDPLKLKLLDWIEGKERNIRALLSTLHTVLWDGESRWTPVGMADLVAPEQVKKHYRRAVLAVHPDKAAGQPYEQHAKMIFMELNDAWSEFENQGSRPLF
# Method summary: Binding affinity to human recombinant GAK expressed in Escherichia coli assessed as thermal shift by differential scanning fluorimetry
Reported endpoint: Tm

COc1cc(O)c2c(c1)/C=C/CC[C@H](C)C(=O)CCC[C@H](C)OC2=O < 2 °C
COC1=C2C[C@@H](C)C[C@H](OC)[C@H](O)[C@@H](C)/C=C(\C)[C@H](OC(N)=O)[C@@H](OC)/C=C\C=C(/C)C(=O)NC(=CC1=O)C2=O < 2 °C
COc1cc2c(c(OC)c1)C(=O)O[C@@H](C)CCC[C@@H](O)[C@@H](C)CC/C=C/2 < 2 °C
C[C@H]1CCCC(=O)CCC/C=C/c2cc(O)cc(O)c2C(=O)O1 2.4 °C

# input Look up and report measured Tm (Cyclin-G-associated kinase (Homo sapiens) (UniProt O14976)) for the following molecule: COc1cc2c(c(OC)c1)C(=O)O[C@@H](C)CCCC(=O)[C@@H](C)CC/C=C/2
# output < 2 °C

# input Look up and report measured Tm (Cyclin-G-associated kinase (Homo sapiens) (UniProt O14976)) for the following molecule: C[C@@H]1C[C@H]2O[C@@H]2/C=C\C=C\C(=O)Cc2c(Cl)c(O)cc(O)c2C(=O)O1
# output < 2 °C

# input Look up and report measured Tm (Cyclin-G-associated kinase (Homo sapiens) (UniProt O14976)) for the following molecule: C[C@H]1CCCC(=O)[C@@H](C)CC/C=C/c2cc(O)cc(O)c2C(=O)O1
# output 2.9 °C
